- Tested On: Human Neutrophil Elastase (HNE) (Homo sapiens, UniProt P08246)
- Construct: Human Neutrophil Elastase (HNE) purified from serum
- Sequence (P08246 30-267): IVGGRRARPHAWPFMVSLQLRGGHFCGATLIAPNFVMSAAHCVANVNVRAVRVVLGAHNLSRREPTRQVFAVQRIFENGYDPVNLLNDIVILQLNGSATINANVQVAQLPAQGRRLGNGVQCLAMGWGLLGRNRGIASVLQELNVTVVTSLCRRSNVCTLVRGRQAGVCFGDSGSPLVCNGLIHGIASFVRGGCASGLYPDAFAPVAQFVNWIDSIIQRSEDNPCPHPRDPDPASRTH
- Test: Human Neutrophil Elastase Quenched-FRET Assay
- Conditions: HNE purified from serum 1.7 nM, substrate MeOSuc-AAPV-AMC 100 μM, pH 7.5, 15 min pre-incubation, 30 min incubation at room temperature; read-out: Inhibition of Human Neutrophil Elastase IC50
Flag rule - IC50 less than 40 nM flags t; the remaining entries get f.

Determine if Cc1c(C#CCO)cc(C(=O)NCc2ccc(S(C)(=O)=O)cc2)c(=O)n1-c1cccc(C(F)(F)F)c1 shows IC50 strictly lower than 40 nM.
t

Determine if Cc1c(C2CC2)cc(C(=O)NCc2cc(CO)no2)c(=O)n1-c1cccc(C(F)(F)F)c1 shows IC50 strictly lower than 40 nM.
f

---

Would you mind telling me the reported IC50 of each entry?
- Tested On: Human Neutrophil Elastase (HNE) (Homo sapiens, UniProt P08246)
- Construct: Human Neutrophil Elastase (HNE) purified from serum
- Test: Human Neutrophil Elastase Quenched-FRET Assay
- Conditions: HNE purified from serum 1.7 nM, substrate MeOSuc-AAPV-AMC 100 μM, pH 7.5, 15 min pre-incubation, 30 min incubation at room temperature; read-out: Inhibition of Human Neutrophil Elastase IC50
One number for each entry, in nM.

Some entries whose results are on file:
Cc1c(CS(C)(=O)=O)cc(C(=O)NCc2ccc(S(=O)(=O)C3CC3)cc2)c(=O)n1-c1cccc(C(F)(F)F)c1 [Example 23] : 61
CCc1cc(C(=O)NCc2cc(CO)no2)c(=O)n(-c2cccc(C(F)(F)F)c2)c1C [Example 6] : 45

Would you kindly look at the next entry?
The value of IC50 measured for the molecule Cc1c(-c2ccnn2C)cc(C(=O)NCc2cc(CO)no2)c(=O)n1-c1cccc(C(F)(F)F)c1 [Example 4] turned out to be 31

The measurements presented in this section are drawn from patent US20090131483A1.
